Reference for the values: patent US10266544B2

Test system: Bacillus anthracis, Sterne 34F2
Experiment: microbe, parasite or virus in culture
Type: cell-based
Conditions: STERNE34F2, read-out: MIC B.a.
Structures can show the parent of a compound that is named as a salt.
Below, each of the compounds is paired with its reported MIC value.

COMPOUND	MEASURED ON	ASSAY VALUE
CN[C@@H]1[C@H](O)[C@H](NC)[C@H]2O[C@]3(O)[C@H](O[C@@H]2[C@H]1O)O[C@H](C)C[C@@]3(O)CNCCc1ccc(C(F)(F)F)cc1 [compound 58, Trihydrochloride]	Bacillus anthracis, Sterne 34F2	12.5 to 25 µg/mL
CN[C@@H]1[C@H](O)[C@H](NC)[C@H]2O[C@]3(O)[C@H](O[C@@H]2[C@H]1O)O[C@H](C)C[C@@]3(O)CNCc1ccc(S(C)(=O)=O)cc1 [compound 69, trihydrobromide]	Bacillus anthracis, Sterne 34F2	> 200 µg/mL
CN[C@@H]1[C@H](O)[C@H](NC)C2O[C@]3(O)C(OC2[C@H]1O)O[C@H](C)C[C@@]3(O)CNCc1ccc(C)o1 (some centres unmarked)	Bacillus anthracis, Sterne 34F2	> 200 µg/mL

Incoming: Which value of MIC has been reported for CN[C@@H]1[C@H](O)[C@H](NC)[C@H]2O[C@]3(O)[C@H](O[C@@H]2[C@H]1O)O[C@H](C)C[C@@]3(O)CNc1ccc(OC)cc1 [compound 29, Trihydrochloride] in the records?
Outgoing: 100 to 200 µg/mL

Incoming: Follow-up entry: CN[C@@H]1[C@H](O)[C@H](NC)C2O[C@]3(O)C(OC2[C@H]1O)O[C@H](C)C[C@@]3(O)CNCCC(C)c1ccccc1 (some centres unmarked)
Outgoing: > 200 µg/mL

* * *

Tested on: Bacillus anthracis, Sterne 34F2
Experiment: microbe, parasite or virus in culture
Type: cell-based
Conditions: STERNE34F2, read-out: MIC B.a.
Where a name gives a salt, the structure may show the parent alone.
PARAMETER MEASURED: MIC

Incoming: Which MIC value belongs to CN[C@@H]1[C@H](O)[C@H](NC)C2O[C@]3(O)C(OC2[C@H]1O)O[C@H](C)C[C@@]3(O)CNCc1ccc(Cc2ccccc2)cc1 (some centres unmarked) ?
Outgoing: > 200 µg/mL

Incoming: Can you handle CN[C@@H]1[C@H](O)[C@H](NC)C2O[C@]3(O)C(OC2[C@H]1O)O[C@H](C)C[C@@]3(O)CNCc1ccc(-c2ccccc2)cc1 (some centres unmarked) next?
Outgoing: > 200 µg/mL

Incoming: How about CCc1ccc(CNC[C@]2(O)C[C@@H](C)O[C@H]3O[C@@H]4[C@@H](O)[C@H](NC)[C@H](O)[C@H](NC)[C@H]4O[C@]32O)cc1 [compound 3, Trihydrochloride] ?
Outgoing: 12.5 to 25 µg/mL

Incoming: And for CN[C@@H]1[C@H](O)[C@H](NC)C2O[C@]3(O)C(OC2[C@H]1O)O[C@H](C)C[C@@]3(O)CNCc1ccc(CO)o1 (some centres unmarked) ?
Outgoing: > 200 µg/mL

Incoming: Now consider CN[C@@H]1[C@H](O)[C@H](NC)[C@H]2O[C@]3(O)[C@H](O[C@@H]2[C@H]1O)O[C@H](C)C[C@@]3(O)CNCc1ccc(OC(F)(F)F)cc1 [compound 11, Trihydrochloride] .
Outgoing: 100 to 200 µg/mL

* * *

System: M. tuberculosis clinical isolates
Experiment: microbe, parasite or virus in culture
Type: cell-based
Details: Mycobacterium tuberculosis, H37RV, read-out: MIC H37Rv
Structures can show the parent of a compound that is named as a salt.
PARAMETER MEASURED: MIC (µg/mL)
// return numeric value only (unit: µg/mL, not printed)

Check out these entries, answers already filled in.
MOLECULE	PARAMETER MEASURED	ASSAY VALUE
CN[C@@H]1[C@H](O)[C@H](NC)[C@H]2O[C@]3(O)[C@H](O[C@@H]2[C@H]1O)O[C@H](C)C[C@]3(O)CNCc1ccc(F)cc1 [compound 28, Trihydrochloride]	MIC	200
CN[C@@H]1[C@H](O)[C@H](NC)[C@H]2O[C@]3(O)[C@H](O[C@@H]2[C@H]1O)O[C@H](C)C[C@@]3(O)CNCc1nccs1	MIC	100
CN[C@@H]1[C@H](O)[C@H](NC)[C@H]2O[C@]3(O)[C@H](O[C@@H]2[C@H]1O)O[C@H](C)C[C@@]3(O)CNCc1ccc(OC(F)(F)F)cc1 [compound 11, Trihydrochloride]	MIC	50

Incoming: Look up MIC: CN[C@@H]1[C@H](O)[C@H](NC)[C@H]2O[C@]3(O)[C@H](O[C@@H]2[C@H]1O)O[C@H](C)C[C@@]3(O)CNCCc1ccncc1
Outgoing: 25

Incoming: Same question, CN[C@@H]1[C@H](O)[C@H](NC)[C@H]2O[C@]3(O)[C@H](O[C@@H]2[C@H]1O)O[C@H](C)C[C@]3(O)CNCCc1ccccc1 [compound 27, Trihydrochloride] this time
Outgoing: 200

* * *

Reported MIC values for a set of compounds
Test system: Bacillus anthracis, Sterne 34F2
Experiment: microbe, parasite or virus in culture
Assay type: cell-based
Conditions: STERNE34F2, read-out: MIC B.a.

Incoming: Query for Bacillus anthracis, Sterne 34F2: what MIC does the record show for CN[C@@H]1[C@H](O)[C@H](NC)[C@H]2O[C@]3(O)[C@H](O[C@@H]2[C@H]1O)O[C@H](C)C[C@@]3(O)CNCc1ccncc1 ?
Outgoing: 100 to 200 µg/mL

* * *

Test system: Enterococcus faecalis (ATCC 33186)
Test: MIC determination, microbroth dilution
Assay type: cell-based
Conditions: ATCC33186; Enterococcus faecalis (ATCC 33186); read-out: MIC E.f.
Where a name gives a salt, the structure may show the parent alone.
PARAMETER MEASURED: log10(MIC) (log10 of the value in µg/mL)
The common logarithm of MIC in µg/mL is what is listed.

COMPOUND	ASSAY VALUE
CN[C@@H]1[C@H](O)[C@H](NC)C2O[C@]3(O)C(OC2[C@H]1O)O[C@H](C)C[C@@]3(O)CNCc1cn(C)c2ccccc12 (stereo partly drawn)	1.70
CN[C@@H]1[C@H](O)[C@H](NC)C2O[C@]3(O)C(OC2[C@H]1O)O[C@H](C)C[C@@]3(O)CNCc1cccc(C(=O)OC)c1 (stereo partly drawn)	2.30
CN[C@@H]1[C@H](O)[C@H](NC)C2O[C@]3(O)C(OC2[C@H]1O)O[C@H](C)C[C@@]3(O)CNCc1ccc(CO)o1 (stereo partly drawn)	2.30
CN[C@@H]1[C@H](O)[C@H](NC)[C@H]2O[C@]3(O)[C@H](O[C@@H]2[C@H]1O)O[C@H](C)C[C@@]3(O)CNCc1nc2ccccc2s1 [compound 34, Trihydrobromide]	1.40
CN[C@@H]1[C@H](O)[C@H](NC)[C@H]2O[C@]3(O)[C@H](O[C@@H]2[C@H]1O)O[C@H](C)C[C@@]3(O)CNCCc1ccc(F)cc1 [compound 33, Trihydrochloride]	1.40

Incoming: Which log10(MIC) value is on record for CN[C@@H]1[C@H](O)[C@H](NC)C2O[C@]3(O)C(OC2[C@H]1O)O[C@H](C)C[C@@]3(O)CNCc1ccc2ccn(C)c2c1 (stereo partly drawn) ?
Outgoing: 2.00

Incoming: Now the compound CN[C@@H]1[C@H](O)[C@H](NC)C2O[C@]3(O)C(OC2[C@H]1O)O[C@H](C)C[C@@]3(O)CNCC(C)c1ccccc1 (stereo partly drawn)
Outgoing: 0.80

Incoming: // query: CN[C@@H]1[C@H](O)[C@H](NC)C2O[C@]3(O)C(OC2[C@H]1O)O[C@H](C)C[C@@]3(O)CNCc1ccc(OC)c2c1CCCC2 (stereo partly drawn)
Outgoing: 1.70

Incoming: Same thing, different compound: CN[C@@H]1[C@H](O)[C@H](NC)[C@H]2O[C@]3(O)[C@H](O[C@@H]2[C@H]1O)O[C@H](C)C[C@@]3(O)CNCc1cccs1 [compound 17, Trihydrochloride]
Outgoing: 1.70

Incoming: Repeat for the following compound: CN[C@@H]1[C@H](O)[C@H](NC)[C@H]2O[C@]3(O)[C@H](O[C@@H]2[C@H]1O)O[C@H](C)C[C@@]3(O)CNCc1nccs1
Outgoing: 1.70

Incoming: Also need CN[C@@H]1[C@H](O)[C@H](NC)C2O[C@]3(O)C(OC2[C@H]1O)O[C@H](C)C[C@@]3(O)CNCc1ccc(C)o1 (stereo partly drawn) , thanks.
Outgoing: 2.00

Incoming: Also need CN[C@@H]1[C@H](O)[C@H](NC)C2O[C@]3(O)C(OC2[C@H]1O)O[C@H](C)C[C@@]3(O)CNCc1ccc2ccccc2c1 (stereo partly drawn) , thanks.
Outgoing: 1.70

Incoming: And then CN[C@@H]1[C@H](O)[C@H](NC)C2O[C@]3(O)C(OC2[C@H]1O)O[C@H](C)C[C@@]3(O)CNCc1cccc(O)c1 (stereo partly drawn) , what is it?
Outgoing: 1.10
